Reference for the values: PubChem BioAssay (NCI)

test system: NCI-H460 lung; assay: NCI tumour cell line growth inhibition, 48 h
assay readout: TGI (µM)
Unit µM implied. Number only.

Prompt: Under NCI-H460 lung: TGI value of C=C1C(=O)O[C@H]2[C@H]1CC/C(COC(=O)NCc1c[nH]c3ccc(Br)cc13)=C\CC[C@@]1(C)O[C@@H]21 ?
Response: 4.04

Prompt: Under NCI-H460 lung: TGI value of N=C(N)c1ccc(-c2ccc(-c3ccc(F)cc3)s2)nc1 ?
Response: 3.68

Prompt: Under NCI-H460 lung: TGI value of [O-][n+]1c2cc3c(cc2[n+]([O-])c2c(O)cccc21)CN(CCN1CCOCC1)C3 ?
Response: 28.1
